# Tgt: Gal(b1-3)GalNAc(b1-3)Gal(a1-4)Gal(b1-4)Glc
# Protocol summary: glycan array binding signal (z-score within array); higher = stronger binding
# Test parameters: glycan notation: IUPAC condensed, linker removed
Shown is part of a subset that was picked to be rich in the strongest signals.
Provide the reported glycan array binding signal (z-score) of each item.
// return just the number, without any unit appended

# input I have this binder here, SBD-G4S3-Fc (protein) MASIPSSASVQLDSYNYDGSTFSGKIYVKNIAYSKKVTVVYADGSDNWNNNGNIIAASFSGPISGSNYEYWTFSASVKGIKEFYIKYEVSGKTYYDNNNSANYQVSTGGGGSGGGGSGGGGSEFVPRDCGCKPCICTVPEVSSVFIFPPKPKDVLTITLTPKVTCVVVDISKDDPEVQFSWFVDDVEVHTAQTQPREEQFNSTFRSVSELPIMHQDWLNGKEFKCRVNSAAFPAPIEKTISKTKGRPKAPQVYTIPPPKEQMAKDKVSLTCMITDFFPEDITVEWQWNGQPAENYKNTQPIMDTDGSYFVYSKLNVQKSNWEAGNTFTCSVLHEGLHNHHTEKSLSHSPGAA , and I need its recorded glycan array binding signal (z-score).
# output 0.103

# input Queued: HMGB1 (Rattus norvegicus), P63159 (protein) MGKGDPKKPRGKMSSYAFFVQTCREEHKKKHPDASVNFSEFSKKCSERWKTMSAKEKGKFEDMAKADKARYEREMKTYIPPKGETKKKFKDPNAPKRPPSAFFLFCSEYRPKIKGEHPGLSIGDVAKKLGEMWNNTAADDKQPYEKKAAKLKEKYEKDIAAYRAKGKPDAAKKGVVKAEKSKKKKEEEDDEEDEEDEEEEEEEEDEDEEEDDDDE
# output -0.447

# input Would you mind doing LEA (Lycopersicon esculentum) (protein) NEVFDVPMNETIGVESINASVGGYPRCGAQGDGGNCPSGMCCSVWGWCGKTYGYCAPQNCQKQCPAPYPEGRCGWQADGKSCPNGKCCSYGGWCGTTSDYCARQNCQKQCILPSPPPPPPPPPGFPRPECGLQKNGERCTKPGECCSIWGLCGATYKYCDPQHCQKQCSAPFPPGRCGWQADGRPCPTGQCCSFSGWCGTTSAHCTYPQCVSQCNDPRFPSSLNNRIQSFML as well?
# output -0.547

# input Another: Gal 10 (Homo sapiens), Q05315 (protein) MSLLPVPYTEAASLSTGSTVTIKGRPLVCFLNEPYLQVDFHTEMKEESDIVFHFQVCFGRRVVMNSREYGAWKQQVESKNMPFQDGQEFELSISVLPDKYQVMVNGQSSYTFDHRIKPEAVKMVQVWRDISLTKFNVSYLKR
# output -0.196

# input // same read-out, input: Sebin1 (Coprinopsis cinerea), A8PEE3 (protein) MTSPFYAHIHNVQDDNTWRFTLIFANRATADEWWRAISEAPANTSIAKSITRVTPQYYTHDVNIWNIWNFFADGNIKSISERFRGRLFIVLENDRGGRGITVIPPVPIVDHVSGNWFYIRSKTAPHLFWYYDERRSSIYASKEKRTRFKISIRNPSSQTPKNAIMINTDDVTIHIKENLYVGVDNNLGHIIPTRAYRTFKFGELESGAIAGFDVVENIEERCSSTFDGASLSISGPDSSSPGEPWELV
# output 0.187
